MEASUREMENT_TARGET: UniProt I3LQD3
MEASUREMENT_DESCRIPTION: Enzymatic calpain assay with fluorogenic substrate
Type: biochemical
EXPERIMENTAL_CONDITIONS: porcine kidney calpain 2, 37° C., 10 mM calcium chloride, FIG. 7 Panel B
pIC50: −log10 of the molar value.
PROPERTY_LABEL: pIC50

Quick one: pIC50 of CC(C)CC(NC(=O)CCC(=O)NC(CC(=O)[O-])C[N+](C)(C)C)C(=O)NC(C=O)CCCNC(=N)N [D-isomer] ? < 4.00
